Please go through the items and note down their Activity.
target: UniProt P30542; assay: Allosteric modulation of human adenosine A1 receptor transfected in CHO FlpIn cells assessed as orthosteric agonist R-PIA-mediated ERK1/2 phosphorylation at 3 uM pretreated 30 mins before R-PIA challenge measured after 1.5 hrs by fluorescence assay; assay type: functional, cell-based
Sequence (P30542 whole entry): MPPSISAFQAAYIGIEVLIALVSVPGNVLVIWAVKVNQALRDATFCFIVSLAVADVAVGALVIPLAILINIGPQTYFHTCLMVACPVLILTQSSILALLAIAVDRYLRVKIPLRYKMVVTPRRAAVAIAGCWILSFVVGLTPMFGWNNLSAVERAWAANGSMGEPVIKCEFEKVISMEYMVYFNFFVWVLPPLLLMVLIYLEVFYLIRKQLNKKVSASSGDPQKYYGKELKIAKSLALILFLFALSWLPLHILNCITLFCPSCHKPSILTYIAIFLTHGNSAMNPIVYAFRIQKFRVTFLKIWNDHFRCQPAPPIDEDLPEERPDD
Give bare numbers, in %.

Completed entries (count: 3):
chem-smiles	assayed-target	quantity-unit	Activity
Nc1scc(-c2ccc(Br)cc2)c1C(=O)c1ccc(Cl)cc1	UniProt P30542	%	45
Nc1scc(-c2ccc3ccccc3c2)c1C(=O)c1ccc(Cl)cc1	UniProt P30542	%	54
Nc1scc(-c2ccccc2)c1C(=O)c1ccc(Cl)cc1	UniProt P30542	%	51

Give measured Activity for every item shown.
1. Nc1scc(-c2cccc(Cl)c2)c1C(=O)c1ccc(Cl)cc1
2. Nc1scc(-c2cccc(C(F)(F)F)c2)c1C(=O)c1ccc(Cl)cc1
3. Nc1scc(-c2cccc([N+](=O)[O-])c2)c1C(=O)c1ccc(Cl)cc1
4. Nc1scc(-c2ccc(Cl)cc2)c1C(=O)c1ccccc1
5. COc1cccc(-c2csc(N)c2C(=O)c2ccc(Cl)cc2)c1

Reply:
1: 58; 2: 64; 3: 53; 4: 46; 5: 58

Query: Give the measured Activity of "Nc1scc(-c2cccc(Cl)c2)c1C(=O)c1ccccc1" .
Reply: 45
